test.protocol: Mouse pharmacokinetics study
Format: in vivo
experimental.setup: mouse; CD-1 mice, PO 25 mg/kg, plasma
measured.parameter: AUC (ng·h/mL)

A. CCN1CC(NC(=O)c2c(F)cncc2Nc2ccc(I)cc2F)C1
B. C#Cc1ccc(Nc2cncc(F)c2C(=O)NC2CNC2)c(F)c1
// max by AUC over [ A , B ] Write the label of whichever entry you select. B

====

Test system: HT-29 colon cancer cells
test.protocol: Antiproliferation assay in HT-29 cells (CellTiter Glo)
Type: cell-based
experimental.setup: Homo sapiens, 72 hours or 144 hours
measured.parameter: GI50

C#Cc1ccc(Nc2cncc(F)c2C(=O)NC2CN(CC)C2)c(F)c1 | 100 to 1000 nM
O=C(NC1CNC1)c1ccncc1Nc1ccc(I)cc1F | < 100 nM
CCN1CC(NC(=O)c2c(F)cncc2Nc2ccc(I)cc2F)C1 | < 100 nM
O=C(NC1CNC1)c1c(F)cc(F)cc1Nc1ccc(I)cc1F | > 1000 nM
O=C(NC1CN(CCF)C1)c1c(F)cncc1Nc1ccc(I)cc1F | < 100 nM
O=C(NC1CNC1)c1c(F)cncc1Nc1ccc(Br)cc1Cl | > 1000 nM
C#Cc1ccc(Nc2cncc(F)c2C(=O)NC2CNC2)c(F)c1 | < 100 nM
O=C(NC1CNC1)c1c(F)c(F)c(F)c(F)c1Nc1ccc(I)cc1F | > 1000 nM

Short answer please: GI50, HT-29 colon cancer cells, entry "O=C(NC1CNC1)c1c(F)cncc1Nc1ccc(I)cc1F" < 100 nM
